Task for the reader: assign each of the following compounds its reported GI50.
System: BT-549 breast
measurement_protocol: NCI tumour cell line growth inhibition, 48 h

Examples from the recorded data:
compound: Cc1cc(S(N)(=O)=O)c(S/C(=N\NS(=O)(=O)c2ccc(Cl)cc2)c2ccc(Cl)cc2)cc1Cl
GI50: > 100 µM
--
compound: COc1cccc2c1C(=O)c1c(O)c3c(c(O)c1C2=O)C[C@@](O)(C(C)=O)C[C@@H]3OC1CC(N)C(O)C(C)O1 (stereo partly drawn)
GI50: 0.0482 µM

Hello, I would appreciate it if you could give GI50 for each entry below.
1. Fc1ccc(Nc2nc(Nc3ccc(-c4nc5ccccc5[nH]4)cc3)nc(N3CCCC3)n2)cc1
2. COc1ccc(C2CC(c3cc(OC)c(OC)c(OC)c3)=NN2)cc1 (stereo not drawn)

### Response
6.9 µM
8.02 µM

Required: GI50, one value per compound below.
1. CC(C)[C@]12O[C@H]1[C@@H]1O[C@]13[C@]1(O[C@H]1C[C@H]1c4c(C(=O)c5ccccc5)oc(OC(=O)c5ccccc5)c4CC[C@@]13C)[C@@H]2O
2. O=C(Nc1ccccc1Cl)c1ccc(NC2=C(Cl)C(=O)N(Cc3ccccc3)C2=O)cc1

### Response
1. 0.0188 µM
2. 43 µM

Please look at the items below and tell me GI50 for each one, in order.
1. Cn1c2ccccc2c2c3c(c4c5ccccc5n(CCCCCC#N)c4c21)C(=O)N(O)C3=O
2. O=C(NC(=S)NS(=O)(=O)c1ccc(N2N=C3c4ccccc4CC3C2c2cccs2)cc1)c1ccccc1 (stereo not drawn)

### Response
1. 2.5 µM
2. 21.6 µM

====

System: T-47D breast
measurement_protocol: NCI tumour cell line growth inhibition, 48 h
measured_endpoint: TGI

Before answering, review these 5 worked examples.
molecule: O=C(Nc1ccccc1Cl)c1ccc(NC2=C(Cl)C(=O)N(Cc3ccccc3)C2=O)cc1
TGI: > 100 µM
--
molecule: O=C(O)CCCN1CCCCC1
TGI: > 100 µM
--
molecule: C=C1C(=O)O[C@H]2[C@H]1CC/C(Cn1cc(CCC)nn1)=C\CC[C@@]1(C)O[C@@H]21
TGI: 21.3 µM
--
molecule: S=C1c2cc(Cl)ccc2NC(=NC2CCCC2)C2CSCN12 (stereo not drawn)
TGI: > 100 µM
--
molecule: CC(C)(C)c1cc(C2COC(=O)COCCOCC(=O)OCCOCCO2)cc(C(C)(C)C)c1O (stereo not drawn)
TGI: > 31.6 µM

Items follow; give TGI for each.
1. C[N+](C)(C)CCCCCc1c2nc(c(CCCCC[N+](C)(C)C)c3ccc([nH]3)c(CCCCC[N+](C)(C)C)c3ccc([nH]3)c(CCCCC[N+](C)(C)C)c3nc1C=C3)C=C2
2. O=C1NC(=NCc2ccccn2)S/C1=C\c1ccc2ncccc2c1
3. CC(=O)NC1C(OCC(=O)NC(C)C(=O)NC(CCC(=O)NCCCCCNc2ccc([N+](=O)[O-])c3[nH]c4ccccc4c(=O)c23)C(N)=O)C(O)C(CO)OC1(C)OCc1ccccc1 (stereo not drawn)

### Response
1. > 100 µM
2. > 25 µM
3. > 50 µM

====

System: RPMI-8226 leukemia
measurement_protocol: NCI tumour cell line growth inhibition, 48 h
Exercise: state measured TGI for each of the compounds provided.

// below: answered compounds
compound: Cc1cc(Cl)ccc1NC(=O)C1C(=O)N(c2ccc(Cl)cc2C)C(=O)/C1=N\N (stereo not given)
TGI: > 100 µM
//
compound: CCCCc1cc2c(cc1O)CCC1C2CC[C@@]2(C)C1CC[C@@H]2O (stereo not given in full)
TGI: 39.1 µM
//
compound: Cn1cc(C(=O)C2CCCCC2)ccc1=O
TGI: > 100 µM
//
compound: Cn1cccc1-c1cc(-c2ccc(Br)cc2)nc(N)c1C#N
TGI: > 100 µM
//
compound: CCCCN(CCCC)CC(=O)c1ccc2cc(Cl)c3ccccc3c2c1
TGI: > 100 µM

Go through the items and report each one's TGI.
1. Cc1cc2c(=O)cc(-c3ccc(Cl)cc3)oc2c(C(=O)O)c1C
2. CCOC(=O)/C(O)=C(\C=N\C(=S)Nc1ccc(Cl)c(Cl)c1)C(=O)OCC
3. CCOC(=O)[C@H]1Nc2ccc(O)cc2C2c3ccccc3CC21 (stereo not given in full)
4. CC(CN(CP(=O)([O-])[O-])CP(=O)([O-])[O-])N(CP(=O)([O-])[O-])CP(=O)([O-])[O-].N[C@@H]1CCCC[C@@H]1N.[Pt+2] (stereo not given)
5. Cc1c2cc[n+](C)cc2c(COC2OC(CO)C(O)C2O)c2c3ccccc3n(C)c12 (stereo not given)

### Response
> 100 µM
> 100 µM
> 100 µM
> 100 µM
> 100 µM

The measured values listed here are drawn from PubChem BioAssay (NCI).
